Cited source for all entries: paper PMC7430637

- Experimental target: T1, mTTD-PHD V1 P-patch* (P293A/P294A/P295A) (mouse, UniProt Q8VDF2-1 122-380, P293A | P294A | P295A)
- T1 construct: UHRF1, mouse, splicing variant V1 (NCBI NP_001104550.1), TTD-Linker 2-PHD, residues 122-380 as told for wild-type mTTD-PHD V1; source: E. coli BL21(DE3) RIL, purified (HisPur Cobalt-Resin)
- T1 sequence (looked up): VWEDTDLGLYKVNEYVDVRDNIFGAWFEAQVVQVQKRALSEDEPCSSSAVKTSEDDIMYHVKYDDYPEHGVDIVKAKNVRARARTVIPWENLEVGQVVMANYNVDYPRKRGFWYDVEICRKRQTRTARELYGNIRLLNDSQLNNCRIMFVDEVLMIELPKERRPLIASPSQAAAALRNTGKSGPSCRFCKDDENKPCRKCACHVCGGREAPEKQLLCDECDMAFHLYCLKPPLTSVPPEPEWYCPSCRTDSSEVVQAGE
- Assay summary: fluorescence polarisation; FAM-labelled H3(1-15) peptide, recombinant protein titrated; RT; as described (ref. 28)
- Condition description: both partners purified
Measured quantity: pKd
Would you please state pKd, meaning minus log10 of the concentration in mol/L, as a bare number?

Query: Would you kindly share the measured pKd for ARTKQTARKSTGGKA (fluorescein (FAM) on the N-terminus; K9 trimethylated, histone H3 aa 1-15; also called FAM-H3K9me3; source: synthetic peptide (Synpeptide Co., Ltd)) [FAM-H3(1-15)K9me3 peptide (N-terminally fluorescein-labelled)] ?
Reply: 4.99
